Where these numbers come from: patent US20230355720A1

Biological target: T1, human GIP receptor (human, UniProt P48546 22-466)
T1 sequence (looked up): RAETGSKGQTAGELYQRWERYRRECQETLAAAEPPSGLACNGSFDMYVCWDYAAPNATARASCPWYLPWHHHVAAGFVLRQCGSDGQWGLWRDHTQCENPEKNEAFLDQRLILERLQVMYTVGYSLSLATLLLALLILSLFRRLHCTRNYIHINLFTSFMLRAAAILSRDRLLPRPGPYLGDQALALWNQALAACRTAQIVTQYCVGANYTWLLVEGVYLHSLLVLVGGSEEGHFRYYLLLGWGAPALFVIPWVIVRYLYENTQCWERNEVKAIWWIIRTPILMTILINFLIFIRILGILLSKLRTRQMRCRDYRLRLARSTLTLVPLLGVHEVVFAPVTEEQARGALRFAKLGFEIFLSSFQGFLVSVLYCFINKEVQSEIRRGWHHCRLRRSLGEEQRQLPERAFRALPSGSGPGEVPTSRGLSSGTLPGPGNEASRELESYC
Test: cell-based or functional assay
Bridge positions count the residues as written; N and C are the ends. Square brackets hold non-standard residues; d marks the D form. Ends that are not written are not given here. * marks the point of attachment. Acetyl(2-(4-imidazolyl)) = O=C(Cc1c[nH]cn1)*; Aib = CC(C)(N)C(=O)O
Give In vitro activity (%) compared with native peptide, vs GIP for every item shown.

The examples below pair each entry with its known result.
binder	endpoint-result
Y[Aib]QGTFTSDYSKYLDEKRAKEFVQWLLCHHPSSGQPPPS (bridge 16-20) [triple agonist of SEQ ID NO: 95]	< 0.1%
{Acetyl(2-(4-imidazolyl))}-[Aib]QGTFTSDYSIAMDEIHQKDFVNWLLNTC (bridge 15-19; numbers in words are those of the source; also: ring between positions 16 and 20, type not given here) [triple agonist of SEQ ID NO: 87]	< 0.1%

Kindly consider the entry below.
The binder H[Aib]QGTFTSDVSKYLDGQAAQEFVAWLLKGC [triple agonist of SEQ ID NO: 8] showed In vitro activity (%) compared with native peptide, vs GIP equal to < 0.1%
